Data origin, for the record: patent US20240084003A1

Target: T1, human CD22, full length, on CHO-K1-human CD22 2C4 cells (human, UniProt P20273 20-847)
T1 construct: Full-length human CD22 (NCBI NP_001762.2) stably transfected into CHO-K1
T1 sequence: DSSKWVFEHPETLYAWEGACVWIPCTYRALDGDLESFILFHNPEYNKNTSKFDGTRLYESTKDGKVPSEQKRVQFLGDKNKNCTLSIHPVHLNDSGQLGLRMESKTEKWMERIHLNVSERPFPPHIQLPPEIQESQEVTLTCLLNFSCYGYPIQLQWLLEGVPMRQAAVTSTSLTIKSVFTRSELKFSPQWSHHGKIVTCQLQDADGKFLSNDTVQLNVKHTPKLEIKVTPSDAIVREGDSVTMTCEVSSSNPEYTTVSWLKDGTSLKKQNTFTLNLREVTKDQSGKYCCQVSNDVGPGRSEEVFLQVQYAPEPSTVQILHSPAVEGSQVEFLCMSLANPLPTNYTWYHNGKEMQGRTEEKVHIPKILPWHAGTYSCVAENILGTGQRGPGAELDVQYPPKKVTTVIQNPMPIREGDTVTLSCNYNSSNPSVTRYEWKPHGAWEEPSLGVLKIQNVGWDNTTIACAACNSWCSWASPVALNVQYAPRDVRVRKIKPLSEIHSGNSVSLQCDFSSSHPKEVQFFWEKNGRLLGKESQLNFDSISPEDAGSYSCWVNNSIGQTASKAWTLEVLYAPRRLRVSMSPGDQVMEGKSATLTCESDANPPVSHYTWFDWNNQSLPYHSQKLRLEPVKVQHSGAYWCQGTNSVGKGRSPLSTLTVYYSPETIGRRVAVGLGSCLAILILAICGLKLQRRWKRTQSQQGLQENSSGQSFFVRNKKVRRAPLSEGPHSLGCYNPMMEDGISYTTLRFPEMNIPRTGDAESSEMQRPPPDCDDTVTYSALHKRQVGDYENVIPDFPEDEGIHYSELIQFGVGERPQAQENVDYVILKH
Assay: FACS, CHO-K1-human CD22 2C4 cells
The following binders are shown together with reported pEC50 values.
Lab note: report pEC50 as minus log10 of the concentration in molar units, number only.

Ask: // lookup pEC50 for F2.42.9 human-murine chimeric antibody (antibody, human IgG1, lambda, V domains shown, Chimeric, human IgG1 / lambda; VL tied by name) VH: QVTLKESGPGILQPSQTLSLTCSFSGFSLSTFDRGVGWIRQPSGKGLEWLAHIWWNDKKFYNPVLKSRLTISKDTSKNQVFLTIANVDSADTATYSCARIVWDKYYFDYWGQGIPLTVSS VL: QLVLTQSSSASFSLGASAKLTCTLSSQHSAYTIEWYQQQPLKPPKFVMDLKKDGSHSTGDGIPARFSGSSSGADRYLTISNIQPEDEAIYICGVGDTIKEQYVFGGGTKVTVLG
Reply: 9.06

Ask: Need pEC50, item F2.205.9 human-murine chimeric antibody (antibody, human IgG1, lambda, V domains shown, Chimeric, human IgG1 / lambda; VL tied by name) VH: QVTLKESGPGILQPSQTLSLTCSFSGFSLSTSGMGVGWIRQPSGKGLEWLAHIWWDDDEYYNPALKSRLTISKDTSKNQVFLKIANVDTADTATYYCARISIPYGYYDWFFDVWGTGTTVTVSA VL: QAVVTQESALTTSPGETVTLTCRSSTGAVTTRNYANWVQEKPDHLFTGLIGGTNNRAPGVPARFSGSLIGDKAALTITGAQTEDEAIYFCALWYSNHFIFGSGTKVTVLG
Reply: 9.14

Ask: Which value of pEC50 has been reported for F2.104.10 human-murine chimeric antibody (antibody, human IgG1, lambda, V domains shown, Chimeric, human IgG1 / lambda) VH: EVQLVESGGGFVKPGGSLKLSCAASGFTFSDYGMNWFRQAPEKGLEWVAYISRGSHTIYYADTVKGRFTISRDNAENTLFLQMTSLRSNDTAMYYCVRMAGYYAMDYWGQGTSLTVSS VL: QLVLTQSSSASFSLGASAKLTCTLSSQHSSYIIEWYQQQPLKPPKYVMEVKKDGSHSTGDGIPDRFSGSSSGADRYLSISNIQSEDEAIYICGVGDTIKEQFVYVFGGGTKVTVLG in the records?
Reply: 9.06

Ask: Give its pEC50 value. Item: F2.70.2 human-murine chimeric antibody (antibody, human IgG1, lambda, V domains shown, Chimeric, human IgG1 / lambda) VH: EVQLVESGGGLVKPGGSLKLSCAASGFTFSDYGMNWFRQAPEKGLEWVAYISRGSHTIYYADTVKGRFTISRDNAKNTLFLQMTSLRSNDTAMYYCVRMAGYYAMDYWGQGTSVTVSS VL: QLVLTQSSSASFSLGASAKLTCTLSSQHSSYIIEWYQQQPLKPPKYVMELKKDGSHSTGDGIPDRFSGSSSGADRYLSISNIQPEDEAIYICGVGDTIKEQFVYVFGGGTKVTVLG
Reply: 9.12

Ask: Look up pEC50: F2.343.16 human-murine chimeric antibody (antibody, human IgG1, lambda, V domains shown, Chimeric, human IgG1 / lambda; VL tied by name) VH: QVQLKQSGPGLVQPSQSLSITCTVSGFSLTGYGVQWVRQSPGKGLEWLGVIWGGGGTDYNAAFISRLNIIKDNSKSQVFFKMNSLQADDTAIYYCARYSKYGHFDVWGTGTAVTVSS VL: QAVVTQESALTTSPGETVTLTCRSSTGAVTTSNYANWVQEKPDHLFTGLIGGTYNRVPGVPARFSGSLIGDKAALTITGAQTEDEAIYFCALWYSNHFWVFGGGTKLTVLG
Reply: 8.94
